system: KM12 colon; test: NCI tumour cell line growth inhibition, 48 h
OBSERVATION TYPE: TGI

Here's what some known entries look like.
Cn1c2c(cc(-c3ccccc3)c1=O)COc1ccccc1-2: 29 µM
CCOC(=O)C1CC/C(=C(/C#N)C(=O)OC)N1 (stereo unspecified): > 100 µM
O=c1cc(-c2nc3ccccc3[nH]2)[nH]c2nc(-c3nc4ccccc4[nH]3)cc(-c3ccc(Cl)cc3)c12: 64.4 µM
COc1ccc2c(c1)CC[C@@H]1[C@@H]2CC[C@]2(C)[C@@H](O)/C(=C/c3ccncc3)C[C@@H]12: 31.4 µM
COc1ccc(C2C3=C(COC3=O)N(CCO)c3cc4c(cc32)OCCO4)cc1OC (stereo unspecified): > 38.7 µM

Next compound, please.
What value of TGI has been recorded for this entry: "COc1ccccc1OC(=O)/C=C/c1ccccc1"
> 100 µM

====

test system: SK-MEL-28 melanoma; assay: NCI tumour cell line growth inhibition, 48 h; in the data active means GI50 below about 0.43 µM; inactive means the rest
Write down the outcome that applies. Available outcomes: yes (active), no (inactive)

CON: no
CCOC(=O)CNC(=O)C(CSC(=O)N(C)O)NC(=O)CCC(N)C(=O)O (stereo not given): no
CN(C)CCOc1nc2ccccc2c2c1-c1ccc(Cl)cc1C2=O: no
CCN(CC)c1ccc2nc3c4ccccc4c(=NC(=O)c4ccccc4-c4c5ccc(N(CC)CC)cc5[o+]c5cc(N(CC)CC)ccc45)cc-3oc2c1: no
COc1cnc2c(c1)C(=O)c1c-2n(CCCN2CCN(CCO)CC2)c(=O)c2cc([N+](=O)[O-])ccc12: no

Now look at this one.
Test call, this compound: COc1ccc(-n2sc(=O)n(Cc3ccc(COC(=O)C(C)c4ccc(CC(C)C)cc4)cc3)c2=O)cc1 (stereo not given)
no

====

The following molecules are shown together with reported TGI values.
system: SNB-19 CNS; test: NCI tumour cell line growth inhibition, 48 h

Here's what some known entries look like.
O=c1c2ncn(CCCl)c2n(-c2ccccc2)c(=S)n1-c1ccccc1: > 100 µM
N#CSCC(=O)c1ccc(Cl)cc1: > 73 µM
CC1=NN(c2ccccc2)C(=O)C1N=Nc1ccc(Br)c(C)c1 (stereo unspecified): > 100 µM
CCN1C(=O)N(CC)C2C1NN=c1s/c(=C\c3ccccc3)c(=O)n12 (stereo unspecified): > 100 µM
COc1c2ccoc2c(S(=O)(=O)Nc2ccc(Cl)cc2)c2oc(C)cc(=O)c12: > 100 µM
O=c1cc(-c2ccccc2Cl)[nH]c2cc3c(cc12)OCO3: > 100 µM
CC(=O)OCC(=O)C1(O)C(C)CC2C3C=C(C)C4=Cc5c(cnn5-c5ccccc5)CC4(C)C3C(O)CC21C (stereo unspecified): 11.9 µM
O=P1(O)c2ccccc2CS(=O)(=O)Cc2ccccc21: > 100 µM

What value of TGI has been recorded for this entry: "CC(=O)O/C=C\OC1CCCC1"
> 100 µM

Similarly, COc1nc2c(c(=O)n1C)NC(C(O)C(O)CO)C=N2 (stereo unspecified) ?
> 10 µM

Similarly, "C1=c2ccccc2=C2C(=C(c3ccccc3)C(c3ccccc3)=NN2c2ccccc2)S1" ?
> 100 µM

Similarly, "CC(=O)NNc1nc(C)c(C(/C=C/c2ccc(NC(C)=O)cc2)=N/NS(=O)(=O)c2ccc(C)cc2)s1" ?
> 100 µM

Similarly, "CCOC(=O)CCc1c(C)[nH]c2c(C)c3c([nH]c4ccc(Cl)cc43)c(C)c2c1=O" ?
> 100 µM

Similarly, C=CCC1=CC2(OC)C(=O)C(OC)(OC)C1C1C(OC)(OC)C(=O)C(OC)=CC12CC=C (stereo unspecified) ?
> 100 µM

Similarly, CCOc1cc(NC(C)=O)ccc1C(=O)NN1C(=O)CSC1c1ccc(O)c(OC)c1 (stereo unspecified) ?
> 100 µM

Similarly, "COC(=O)c1ccc(NCc2cc(O)ccc2O)cc1O" ?
31.8 µM

Similarly, "ClCC1(CCl)COC1" ?
> 100 µM

Source of measurements: PubChem BioAssay (NCI)
